target: His6-JNK2α1 (UniProt P45984-2 1-382); assay: fluorescence polarisation
TMR = 6-carboxytetramethylrhodamine

{"columns": ["BINDER", "DISPLAY_UNIT", "Kd"],
 "data": [
  ["{TMR}-RPKRPTTLNLF-OH [TMR-JIPtide]", "µM", 37]
]}

The measured values listed here are drawn from paper PMC6338552.
